Target: Dual specificity tyrosine-phosphorylation-regulated kinase 2 (Homo sapiens);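 note: reported values are means of DYRK2 inhibition from screening the GSK PKIS collection at 1 µM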
Settings: at 1 µM
I'd appreciate it if you could supply inhibition values for the items below.
Respond with the bare value in %.

q: Tell me reported inhibition for `COc1cc(Nc2nccc(-c3cnn4ncccc34)n2)cc(OC)c1` , tested with Dual specificity tyrosine-phosphorylation-regulated kinase 2 (Homo sapiens).
a: 30.2

q: Query `N#Cc1c(NC(=O)c2ccccc2F)sc2c1CCCC2` next
a: -2.88

q: Likewise for `Cc1ccc(C(=O)NC2CC2)cc1-c1ccc2[nH]ncc2c1` ?
a: -3.69

q: How about `COC(=O)Nc1nc2cc(Oc3ccc(NC(=O)Nc4cccc(Br)c4)cc3)ccc2[nH]1` ?
a: 3.59

q: How about `Cc1nc(-c2ccccc2)n2nc(NCCCN3CCOCC3)ncc12` ?
a: 5.9

q: What about this compound? `Nc1nccc(-c2c(-c3ccc(F)cc3)nn3cc(C(F)(F)F)ccc23)n1`
a: -1.97

q: Also, `O=C1Nc2ccccc2/C1=C/Nc1ccc2[nH]c(=O)[nH]c2c1` please.
a: 11.1

q: `CCn1c(-c2nonc2N)nc2ccc(F)cc21` ?
a: 4.15

q: Queued: `Cc1ccc(NC(=O)CC2CC2)cc1-c1ccc(C(=O)NCC2CC2)cc1`
a: 2.68

q: Next up: `C[C@@H](Oc1cc(-n2cnc3ccc(OC[C@@H](O)CO)cc32)sc1C(N)=O)c1ccccc1Cl`
a: 1.61

q: Cool, now `NS(=O)(=O)c1ccc(Nc2cc(-c3cccc(O)c3)n[nH]2)cc1`
a: 4.65

q: Queued: `OCc1ccc(-c2nc(-c3ccccn3)c(-c3ccc4c(c3)OCO4)[nH]2)cc1`
a: 3.63

Data credit: ChEMBL document CHEMBL1961873
